The reported numbers originate from patent US8940731B2.

Observed pKi for Rat H3 (Rattus norvegicus), reported per entry below.
pKi: −log10 of the molar value. Where a name gives a salt, the structure may show the parent alone.
readout: pKi

* CSc1ccc(Oc2ccc(C(=O)N3CCCN(C4CCC4)CC3)cn2)cc1C | 7.44
* Cc1cc(Oc2ccc(C(=O)N3CCCN(C4CC4)CC3)cn2)ccc1Cl | 7.29
* O=C(c1ccc(Oc2cccc(F)c2)nc1)N1CCCN(C2CC2)CC1 | 6.89
* O=C(c1ccc(Oc2ccc(F)c(F)c2)nc1)N1CCCN(C2CCC2)CC1 | 7.80
* O=C(c1ccc(Oc2ccccc2F)nc1)N1CCCN(C2CCC2)CC1 | 7.70
* O=C(c1ccc(Oc2ccc(F)cc2)nc1)N1CCCN(C2CC2)CC1 | 7.17
* O=C(c1ccc(Oc2ccc(Cl)c(Cl)c2)nc1)N1CCCN(C2CC2)CC1 | 6.89
* O=C(c1ccc(Sc2ccc(F)cc2)cn1)N1CCCN(C2CCC2)CC1 [Example 84, trifluoroacetic acid salt] | 7.43
* O=C(c1ccc(Oc2ccc(Cl)c(Cl)c2)cn1)N1CCCN(C2CC2)CC1 [Example 52, trifluoroacetic acid salt] | 6.96
* O=C(c1ccc(Oc2ccc(Cl)c(Cl)c2)nc1)N1CCCN(C2CCC2)CC1 | 8.00
* O=C(c1ccc(Oc2ccc(F)cc2F)nc1)N1CCCN(C2CC2)CC1 | 7.04
* O=C(c1ccc(Oc2cccc(F)c2)nc1)N1CCCN(C2CCC2)CC1 | 7.68
* Cc1ccccc1Oc1ccc(C(=O)N2CCCN(C3CCC3)CC2)cn1 | 7.77
* N#Cc1cccc(Oc2ccc(C(=O)N3CCCN(C4CC4)CC3)cn2)c1 | 6.35
* O=C(c1ccc(Oc2ccc(F)cc2F)nc1)N1CCCN(C2CCC2)CC1 | 7.59
* O=C(c1ccc(Oc2ccccc2)nc1)N1CCCN(C2CC2)CC1 | 7.27
* O=C(c1ccc(Oc2cc(F)cc(F)c2)nc1)N1CCCN(C2CCC2)CC1 | 7.52
* O=C(c1ccc(Oc2ccccc2F)nc1)N1CCCN(C2CC2)CC1 | 7.41
* N#Cc1nc(C(=O)N2CCCN(C3CC3)CC2)ccc1Oc1cccnc1 [Example 56, hydrochloride salt] | 6.75
* O=C(c1ccc(Oc2ccc(Cl)c(Cl)c2)cn1)N1CCCN(C2CCC2)CC1 [Example 51, trifluoroacetic acid salt] | 7.22

----------
measuredTarget: Rat H3 (Rattus norvegicus, UniProt Q9QYN8)
method: cell-based
Sequence (Q9QYN8 whole entry): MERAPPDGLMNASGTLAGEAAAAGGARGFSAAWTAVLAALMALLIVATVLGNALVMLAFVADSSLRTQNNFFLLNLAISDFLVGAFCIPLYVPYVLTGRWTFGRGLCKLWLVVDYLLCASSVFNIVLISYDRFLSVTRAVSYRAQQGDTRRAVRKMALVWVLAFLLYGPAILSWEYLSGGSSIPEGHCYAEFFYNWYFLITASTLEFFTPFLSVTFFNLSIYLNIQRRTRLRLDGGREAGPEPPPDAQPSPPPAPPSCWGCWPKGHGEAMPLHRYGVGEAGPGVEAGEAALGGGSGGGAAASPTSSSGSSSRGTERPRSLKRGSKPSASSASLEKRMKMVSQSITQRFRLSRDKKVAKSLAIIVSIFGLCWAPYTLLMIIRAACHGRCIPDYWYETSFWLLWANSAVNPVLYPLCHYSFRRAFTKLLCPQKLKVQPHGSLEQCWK
Structures can show the parent of a compound that is named as a salt.
Decision: Kb beneath 10 nM gives 1; Kb meeting or exceeding 10 nM gives 0.

- CSc1ccc(Oc2ccc(C(=O)N3CCCN(C4CCC4)CC3)cn2)cc1C: 0
- N#Cc1nc(C(=O)N2CCCN(C3CC3)CC2)ccc1Oc1cccnc1 [Example 56, hydrochloride salt]: 0
- O=C(c1ccc(Oc2ccccc2)nc1)N1CCCN(C2CCCC2)CC1: 1
- N#Cc1nc(C(=O)N2CCCN(C3CC3)CC2)ccc1Oc1ccccc1F: 0
- O=C(c1ccc(Oc2ccc(F)cc2F)nc1)N1CCCN(C2CCC2)CC1: 1
- N#Cc1nc(C(=O)N2CCCN(C3CC3)CC2)ccc1Oc1ccc(F)cc1: 0
- Cc1ccc(Oc2ccc(C(=O)N3CCCN(C4CCC4)CC3)cn2)cc1: 1
- O=C(c1ccc(Oc2ccccc2F)nc1)N1CCCN(C2CCC2)CC1: 1
- O=C(c1ccc(Oc2ccc(Cl)c(Cl)c2)cn1)N1CCCN(C2CCC2)CC1 [Example 51, trifluoroacetic acid salt]: 0
- O=C(c1ccc(Oc2ccc(F)c(F)c2)nc1)N1CCCN(C2CCC2)CC1: 1
- O=C(c1ccc(Oc2ccccc2F)nc1)N1CCCN(C2CC2)CC1: 1
- Cc1ccccc1Oc1ccc(C(=O)N2CCCN(C3CCC3)CC2)cn1: 1
- O=C(c1ccc(Oc2ccc(F)cc2)nc1)N1CCN(C2CCCC2)CC1: 0
- O=C(c1ccc(Oc2ccc(F)cc2)nc1)N1CCCN(C2CCCC2)CC1: 1
- O=C(c1ccc(Oc2ccc(Cl)c(Cl)c2)nc1)N1CCCN(C2CCCC2)CC1: 0
- O=C(c1ccc(Oc2ccc(Cl)c(Cl)c2)nc1)N1CCCN(C2CC2)CC1: 0
